System: Fibroblast
Assay: Multiplex assay against human fibroblast
Type: toxicity, cell-based
Conditions: 48 h, 10 µM, compound concentration 10 uM, replicate 2
Output criterion met for records whose Population Hoechst High Intensity Objects (%) is lower than 6%, criterion not met for records at or above 6%.

These solved cases illustrate the format of a correct answer.
COMPOUND: O=C(O)CCC/C=C\CC1C(O)CC(O)C1/C=C/C(O)COc1cccc(Cl)c1 (stereo not drawn)
CATEGORY LABEL: criterion not met

COMPOUND: Cc1ccc(OCC(O)C(C)NC(C)C)c2c1CCC2.Cl (stereo not drawn)
CATEGORY LABEL: criterion not met

COMPOUND: COc1cc2nc(N3CCN(C(=O)COc4c(OC)cccc4C(C)C)CC3)nc(N)c2cc1OC.Cl.Cl
CATEGORY LABEL: criterion not met

COMPOUND: COc1cc(Nc2ncc3c(n2)-c2ccc(Cl)cc2C(c2c(F)cccc2OC)=NC3)ccc1C(=O)O
CATEGORY LABEL: criterion not met

COMPOUND: CCc1nn2c(C)cc(C)nc2c1Cc1ccc(-c2nnc(C3CCNCC3)o2)cc1
CATEGORY LABEL: criterion met

COMPOUND: Cc1cc(O)c(-c2ccc([C@@H](C)CN(C)C)cc2)c2c1[nH]c(=O)c1sccc12
CATEGORY LABEL: criterion not met

# next compound below
Ask: Given the entry CN1CCC(C(=O)c2cccc(NC(=O)c3c(F)cc(F)cc3F)n2)CC1 , would its reported Population Hoechst High Intensity Objects (%) be below 6%?
Result: criterion met
